Tested on: CAL-12T
Assay notes: relative viability (nuclei count vs DMSO), 5 days (fraction); higher = more cells survive
Condition: first compound 0.8 µM
Listed here: items and their measured relative viability.

Before answering, review these 4 worked examples.
Cc1cnc(-c2cnc(NCCNc3ccc(C#N)cn3)nc2-c2ccc(Cl)cc2Cl)[nH]1 + CC(=O)Nc1cccc(-n2c(=O)n(C3CC3)c(=O)c3c(Nc4ccc(I)cc4F)n(C)c(=O)c(C)c32)c1 [Trametinib] (partner 0.02 µM)	0.333
O=c1[nH]c2ccccc2n1C1CCN(CCCC(c2ccc(F)cc2)c2ccc(F)cc2)CC1 [Pimozide] + CC(=O)c1c(C)c2cnc(Nc3ccc(N4CCNCC4)cn3)nc2n(C2CCCC2)c1=O [Palbociclib] (partner 0.5 µM)	0.442
O=c1[nH]c2ccccc2n1C1CCN(CCCC(c2ccc(F)cc2)c2ccc(F)cc2)CC1 [Pimozide] + Cc1nc(Nc2ncc(C(=O)Nc3c(C)cccc3Cl)s2)cc(N2CCN(CCO)CC2)n1 [Dasatinib] (partner 0.075 µM)	0.415
O=c1[nH]c2ccccc2n1C1CCN(CCCC(c2ccc(F)cc2)c2ccc(F)cc2)CC1 [Pimozide] + NC(=O)Nc1cc(-c2cccc(F)c2)sc1C(=O)N[C@H]1CCCNC1 [AZD7762] (partner 0.2 µM)	0.539

In the following, a different compound is considered.
**Q:** Sample Cc1cnc(-c2cnc(NCCNc3ccc(C#N)cn3)nc2-c2ccc(Cl)cc2Cl)[nH]1 + NC(=O)Nc1cc(-c2cccc(F)c2)sc1C(=O)N[C@H]1CCCNC1 [AZD7762] (partner 0.2 µM) — what was its relative viability?
**A:** 0.544

----------
Tested on: NCI-H661
Assay notes: relative viability (nuclei count vs DMSO), 5 days (fraction); higher = more cells survive
Condition: first compound 5 µM
Metric name: relative viability

Before answering, review these 4 worked examples.
O=C(O)CCCCC(CCSCc1ccccc1)SCc1ccccc1 (stereo not given) [CPI-613] + O=C(CCCCCCC(=O)Nc1ccccc1)NO [Vorinostat] (partner 1 µM)	0.702
O=C(O)CCCCC(CCSCc1ccccc1)SCc1ccccc1 (stereo not given) [CPI-613] + Cc1nc(Nc2ncc(C(=O)Nc3c(C)cccc3Cl)s2)cc(N2CCN(CCO)CC2)n1 [Dasatinib] (partner 0.075 µM)	0.863
O=C(O)CCCCC(CCSCc1ccccc1)SCc1ccccc1 (stereo not given) [CPI-613] + Cc1nc(NC(=O)N2CCC[C@H]2C(N)=O)sc1-c1ccnc(C(C)(C)C(F)(F)F)c1 [Alpelisib] (partner 2 µM)	0.68
O=C(O)CCCCC(CCSCc1ccccc1)SCc1ccccc1 (stereo not given) [CPI-613] + CC(C)C[C@H](NC(=O)[C@H](Cc1ccccc1)NC(=O)c1cnccn1)B(O)O [Bortezomib] (partner 0.002 µM)	0.749

**Q:** Sample O=C(O)CCCCC(CCSCc1ccccc1)SCc1ccccc1 (stereo not given) [CPI-613] + COc1cccc2cc(-c3nc([C@H]4CC[C@H](C(=O)O)CC4)n4ncnc(N)c34)[nH]c12 [OSI-027] (partner 0.5 µM) — what was its relative viability?
**A:** 0.684

----------
System: UMC-11
Assay notes: relative viability (nuclei count vs DMSO), 5 days (fraction); higher = more cells survive
Condition: first compound 0.05 µM
Metric name: relative viability
# respond with the number and nothing more

Before answering, review these 3 worked examples.
COc1cc2nccc(Oc3ccc(NC(=O)Nc4cc(C)on4)c(Cl)c3)c2cc1OC [Tivozanib] + Cc1nc(NC(=O)N2CCC[C@H]2C(N)=O)sc1-c1ccnc(C(C)(C)C(F)(F)F)c1 [Alpelisib] (partner 2 µM)	0.964
COc1cc2nccc(Oc3ccc(NC(=O)Nc4cc(C)on4)c(Cl)c3)c2cc1OC [Tivozanib] + COc1cccc2cc(-c3nc([C@H]4CC[C@H](C(=O)O)CC4)n4ncnc(N)c34)[nH]c12 [OSI-027] (partner 0.5 µM)	0.536
COc1cc2nccc(Oc3ccc(NC(=O)Nc4cc(C)on4)c(Cl)c3)c2cc1OC [Tivozanib] + C[C@@H](Oc1cc(-c2cnn(C3CCNCC3)c2)cnc1N)c1c(Cl)ccc(F)c1Cl [Crizotinib] (partner 1 µM)	0.649

In the following, a different compound is considered.
**Q:** Report relative viability for COc1cc2nccc(Oc3ccc(NC(=O)Nc4cc(C)on4)c(Cl)c3)c2cc1OC [Tivozanib] + Cc1nc(Nc2ncc(C(=O)Nc3c(C)cccc3Cl)s2)cc(N2CCN(CCO)CC2)n1 [Dasatinib] (partner 0.075 µM) tested on UMC-11.
**A:** 0.465
